For reference, the following IC50 results for TYRO3 (Homo sapiens, UniProt Q06418) were taken from various sources.

Consider the following illustrative entries.
COC[C@H](C)Nc1ncc2c(-c3ccc(-c4nn[nH]n4)cc3)cc([C@H]3CC[C@H](O)CC3)n2n1 :: ≤ 100 nM
COC[C@H](C)Nc1ncc2c(OC3CCN(S(C)(=O)=O)CC3)ncc([C@H]3CC[C@H](O)CC3)c2n1 :: 100 to 1000 nM
COCc1c(Br)cc(C(=O)Nc2ccc(-c3cc(C4CCN(C(=O)C(C)C)CC4)n4ncnc(N)c34)cc2)c(=O)n1-c1ccccc1 :: > 100 nM
COC[C@H](C)Nc1ncc2c(-c3cncc(C(N)=O)c3)cc([C@H]3CC[C@H](O)CC3)n2n1 :: ≤ 100 nM
COC[C@H](C)Nc1ncc2c(-c3cnn(C)c3)cc([C@H]3CC[C@H](O)CC3)n2n1 :: ≤ 100 nM

Now look at this entry.
Kindly state the measured IC50 obtained for COC[C@H](C)Nc1ncc2c([C@@H]3CCN(S(C)(=O)=O)C3)cc([C@H]3CC[C@H](O)CC3)n2n1 with TYRO3 (Homo sapiens, UniProt Q06418). ≤ 100 nM
